Target: T1, extracellular domain of hIL10Rb (human, UniProt Q08334 20-220)
T1 construct: also called hIL10Rb ECD; human IL10Rb
T1 sequence: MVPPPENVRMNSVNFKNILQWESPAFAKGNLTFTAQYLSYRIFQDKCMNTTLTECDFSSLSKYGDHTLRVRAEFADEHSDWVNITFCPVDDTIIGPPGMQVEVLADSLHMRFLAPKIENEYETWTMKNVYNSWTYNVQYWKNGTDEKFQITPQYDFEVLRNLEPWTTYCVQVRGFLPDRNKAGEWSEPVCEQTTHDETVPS
Experiment: flow cytometry

- binder: "hIL10Rb_VHH-4 (VHH, anti-hIL10Rb camel VHH) VHH: QVQLQESGGGSIQAGGSLRLSCAASRYLYSIDYMAWFRQSPGKEREPVAVIYTASGATFYPDSVKGRFTISQDNAKMTVYLQMNSLKSEDTAMYYCAAVRKTDSYLFDAQSFTYWGQGTQVTVSS"
  binding result: "binds"
- binder: "hIL10Rb_VHH-8 (VHH, anti-hIL10Rb camel VHH) VHH: QVQLQESGGGSVQAGGSLRLSCAASGYSYSSYCMGWFRQAPGKEREGVAAIASDGSTSYADSVKGRFAISKDNAKNTLYLQMASLKPEDTAMYYCAAEPWCTGGYSRLTPAEYGYWGQGTQVTVSS"
  binding result: "binds"
